Data credit: ChEMBL document CHEMBL1932964

assay: Intrinsic clearance in Sprague-Dawley rat hepatocytes assessed per 10^6 cells measured after 90 mins
reported.metric: hepatocyte CLint at […]

I'd like to know its hepatocyte CLint at […]. The compound in question is Cc1ccc(S(=O)(=O)Nc2c(C(=O)N[C@@H](C)C(C)(C)C)c(C)nn2C(C)C)cc1 < 6 µL/min/1e6 cells

I'd like to know its hepatocyte CLint at […]. The compound in question is COCC(C)n1nc(C)c(C(=O)N[C@@H](C)C(C)(C)C)c1NS(=O)(=O)c1ccc(C)cc1 (stereo partly drawn) < 3 µL/min/1e6 cells

I'd like to know its hepatocyte CLint at […]. The compound in question is Cc1nn(-c2ccc(F)cc2)c(NS(=O)(=O)c2ccc(C#N)cc2)c1C(=O)N[C@@H](C)C(C)(C)C < 4 µL/min/1e6 cells
